Molecular target: T1, mouse IL-4R (mouse, UniProt P16382 26-233, limits assumed)
T1 sequence (looked up): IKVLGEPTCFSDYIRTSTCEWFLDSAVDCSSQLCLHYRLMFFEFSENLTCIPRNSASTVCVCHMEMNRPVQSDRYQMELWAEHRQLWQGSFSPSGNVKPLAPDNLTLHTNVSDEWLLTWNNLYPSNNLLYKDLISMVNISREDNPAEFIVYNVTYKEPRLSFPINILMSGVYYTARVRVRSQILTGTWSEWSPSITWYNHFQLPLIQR
Assay: binding affinity test of Example 2 (method not restated)

>  <binder>
VAK7G8-5 (antibody, V domains shown, Apparently tested with mouse constant region (anti-mouse IgG capture/detection)) VH: QVRLVESGGGVVQPGGSLRLSCTASGFIFRSYGMHWVRQAPGRGLEWVAVISYDGSKTFYVDSVKVRFTISRDNSKNTLYLEMNSLRVDDTAVYFCVKEGRSGSWFDPWGQGTLVAVSS VL: DIHMTQSPSSLSASVGDRVTITCRASQAINNFLAWFQQKPGKTPKSLIFATSSLQSGVPSRFSGSGSGTDFTLTISSLQPEDFATYYCQQYNSHPWTFGQGTKVEIR

>  <binding result>
no binding

$$$$
>  <binder>
VAB 7B9-3 (antibody, V domains shown, Apparently tested with mouse constant region (anti-mouse IgG capture/detection)) VH: QVQLVQSGAEVKKPGASVKVSCKDSAYTFNRYGISWVRQAPGQGLEWMGWISAYTGNTVYAQKLQGRVTMTTDNSTSTAYMELRSLRSDDTAVYYCARDKSIFGVVRGFDYWGQGTLVTVSS VL: EIVMTQSPVTLSLSPGERATLPCRASQSVSSSLAWYQQKAGQSPRLLIYGASTRATGIPARFSGSGSGTEFTLTISNLQSEDFAVYYCQQYNNWPLTFGGGTKVEIK

>  <binding result>
no binding

$$$$

Where these numbers come from: patent US20080160035A1
